B1: ZNF449 (parent)
chain: HKKKSPGEKPHRCPQCGKCFARKS

variants of: B1; experiment: protein stability index of a GFP-peptide fusion (GPS, HEK-293T) (PSI 1-6); higher = more stable; conditions: c terminus: a fixed tail appended;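 also: lentivirally expressed fusions sorted by FACS into six bins by GFP to DsRed ratio, PSI derived from sequencing read proportions per bin multiplied by bin number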
protein stability index for assorted variants

# VARIANT NOTATION, protein stability index
rows = [
    ("R12N", 3.92),
    ("H1V", 3.15),
    ("K23I", 2.09),
    ("G7N", 3.52),
    ("C19V", 3.41),
    ("R12F", 2.56),
    ("K9F", 3.38),
    ("C16H", 2.71),
    ("P10K", 4.63),
    ("C13D", 4.36),
    ("K23E", 2.5),
    ("R12W", 2.68),
    ("F20S", 3.63),
    ("S24T", 3.8),
    ("K3I", 3.15),
    ("H1D", 3.73),
    ("C19F", 3.48),
    ("P6T", 4.38),
    ("R12H", 3.59),
    ("G17Y", 3.6),
    ("G17N", 3.75),
    ("K2Q", 3.36),
    ("P14W", 2.57),
    ("F20R", 3.96),
    ("Q15F", 3.19),
    ("A21V", 4.04),
    ("K2G", 3.43),
    ("K4Y", 2.33),
    ("R12Y", 3.3),
    ("C13K", 4.26),
    ("G17H", 3.44),
    ("K23N", 2.72),
    ("P6Y", 3.94),
    ("H11N", 3.41),
    ("H1I", 2.06),
    ("S5N", 3.88),
    ("K18F", 5.18),
    ("Q15H", 3.24),
    ("K2N", 3.78),
    ("K3T", 2.07),
    ("K3L", 3.46),
    ("K9Y", 3.75),
    ("F20N", 5.19),
    ("P14F", 2.72),
    ("P6E", 3.4),
    ("P6W", 3.05),
    ("G17Q", 3.66),
    ("R12S", 4.11),
    ("K4A", 2.87),
    ("E8Y", 3.9),
    ("S24V", 1.78),
    ("K23G", 3.12),
    ("G17C", 3.31),
    ("A21I", 2.92),
    ("K3R", 3.46),
    ("K2T", 3.03),
    ("P6G", 4.52),
    ("P10S", 3.86),
    ("K9H", 2.57),
    ("S5E", 3.7),
    ("C13F", 2.71),
    ("R22M", 3.33),
    ("K9L", 2.42),
    ("E8A", 3.41),
    ("K23S", 2.03),
    ("P14Y", 3.75),
    ("K4M", 3.37),
    ("C13W", 3.15),
    ("K4R", 4.01),
    ("S5M", 3.18),
    ("P10M", 4.07),
    ("K3Q", 3.14),
    ("P6N", 3.44),
    ("E8M", 2.93),
    ("C19I", 4.05),
    ("G7P", 4.25),
    ("K4V", 3.66),
    ("K4T", 3.89),
    ("S24I", 3.32),
    ("K2C", 3.21),
    ("F20H", 4.62),
    ("P14H", 3.26),
    ("R12G", 3.1),
    ("S24F", 1.99),
    ("P10C", 2.56),
    ("S24C", 3.82),
    ("K3D", 2.5),
    ("P6K", 3.39),
    ("S5F", 3.4),
    ("C13E", 4.34),
    ("K3A", 3.73),
]
